# test-description: Compound solubility in water
solubility vs 20 µg/mL: at or above is criterion met, below is criterion not met.

| compound | label-value |
| --- | --- |
| CN1CCN(c2cccc3c2ncn3C(=O)NCC#Cc2ccc(F)cc2)CC1 [Example 336] | criterion not met |
| CN1CCC(c2ccc3c(c2)ncn3C(=O)NCCc2ccccc2)CC1 [Example 4] | criterion met |
| N#Cc1cccc2c1ncn2C(=O)NCCCOc1ccccc1 [Example 131] | criterion not met |
| CN1C2CC1CN(c1cccc3c1ncn3C(=O)NCCCc1ccccc1)C2 [Example 243] | criterion met |
| O=C(NCCc1ccccc1)n1c(OCCN2CCOCC2)nc2ccccc21 [Example 357] | criterion not met |

###

# test-system: acid ceramidase (Homo sapiens)
# Construct: Cell lysates overexpressing acid ceramidase were used as the enzyme source; expressed in transfected cells
# Sequence (Q13510 22-395): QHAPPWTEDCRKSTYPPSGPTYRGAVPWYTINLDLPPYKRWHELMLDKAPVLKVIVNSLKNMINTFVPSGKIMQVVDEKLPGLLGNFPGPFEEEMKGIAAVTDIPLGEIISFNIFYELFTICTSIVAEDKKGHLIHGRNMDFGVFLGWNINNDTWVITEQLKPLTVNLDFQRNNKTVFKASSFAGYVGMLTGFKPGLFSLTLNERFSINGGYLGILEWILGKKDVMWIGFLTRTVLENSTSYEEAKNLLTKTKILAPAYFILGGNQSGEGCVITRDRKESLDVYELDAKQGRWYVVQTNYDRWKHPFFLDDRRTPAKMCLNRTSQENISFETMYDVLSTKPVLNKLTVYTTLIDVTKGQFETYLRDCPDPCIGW
# test-description: Acid ceramidase inhibition, biochemical fluorescent assay with cell lysates overexpressing acid ceramidase, substrate Rbm14-12
# condition-notes: substrate Rbm14-12 6.3 μM, pH 4.5, 1 hr preincubation at RT
pIC50: −log10 of the molar value.

| molecule | pIC50 |
| --- | --- |
| O=C(NCCCC1CC1)n1cnc2c(N3CCOCC3)cccc21 | > 6.70 |
| COc1nc2ccc(-c3cncnc3)cc2n1C(=O)NCC(C)C [Example 81a] | 6.00 to 6.70 |
| COc1ccc(C#CCNC(=O)n2cnc3c(N4CCN(C)CC4)cccc32)cc1 | > 6.70 |
| O=C(NCCN1CCOCC1)n1cnc2ccccc21 | < 6.00 |
| COc1nc2cc(-c3cncnc3)ccc2n1C(=O)NC1CCCCC1 [Example 111b] | > 6.70 |
| COc1nc2ccc(-c3cncnc3)cc2n1C(=O)NC1CCCCC1 [Example 111a] | > 6.70 |
| O=C(NCCOc1ccccc1)n1cnc2c(C(F)(F)F)cccc21 | > 6.70 |
| CCOc1nc2ncccc2n1C(=O)NCCCc1ccccc1 [Example 91a] | > 6.70 |
| CCCCNC(=O)n1c(OC)nc2cc(-c3cncnc3)ccc21 [Example 82b] | 6.00 to 6.70 |
| N#Cc1cccc2c1ncn2C(=O)NCCCCc1ccccc1 | > 6.70 |

###

# test-system: acid ceramidase (Homo sapiens)
# Construct: Cell lysates overexpressing acid ceramidase were used as the enzyme source; expressed in transfected cells
# test-description: Acid ceramidase inhibition, biochemical fluorescent assay with cell lysates overexpressing acid ceramidase, substrate Rbm14-12
# condition-notes: substrate Rbm14-12 6.3 μM, pH 4.5, 1 hr preincubation at RT
pIC50: −log10 of the molar value.

| compound | pIC50 |
| --- | --- |
| CN1CCN(c2cccc3c2ncn3C(=O)NCCC#Cc2ccccc2)CC1 | > 6.70 |
| CCCCNC(=O)n1cnc2ccc(N3CCC(N4CCOCC4)CC3)cc21 [Example 101a] | > 6.70 |
| CCCCNC(=O)n1cnc2c(C3CCN(C)CC3)cc(C)cc21 [Example 107a] | 6.00 to 6.70 |
| O=C(NCCc1cccnc1)n1cnc2ccccc21 | 6.00 to 6.70 |
| O=C(NCCCCc1ccccc1)n1cnc2c(N3CCOCC3)cccc21 | > 6.70 |

###

# test-description: Compound solubility in water

| compound | solubility (µg/mL) |
| --- | --- |
| CC(C)CCNC(=O)n1cnc2c(N3CCN4C(=O)CCC4C3)cccc21 (stereo not shown) [Example 209] | 24 |
| O=C(NCCOc1ccccc1)n1cnc2c(C(F)(F)F)cccc21 [Example 72] | 2 |
| CN1CC(N2CC3CC2CN3c2cccc3c2ncn3C(=O)NCCOc2ccccc2)C1 (stereo not shown) [Example 328] | 41 |
| CC(C)CCNC(=O)n1c(=O)n(C)c2ncccc21 [Example 105] | 17.4 |
| COc1nc2cc(N3CCOCC3)ccc2n1C(=O)NCCCc1ccco1 [Example 228b] | 33 |
| COc1c(N2CCOCC2)ccc2c1ncn2C(=O)NCCc1ccccc1 [Example 40] | 10.5 |
| CN1CCN(C2CN(c3cccc4c3ncn4C(=O)NCC(C)(C)Oc3ccccc3)C2)CC1 [Example 344] | 29 |
| CC(C)CCNC(=O)n1cnc2c(N3CCN(CC4CC4)CC3)cccc21 [Example 152] | 20 |
| CC(C)C#CCNC(=O)n1cnc2c(N3CC(N(C)C)C3)cccc21 [Example 355] | 22 |
| CN1CCC(c2cc3c(cc2Cl)ncn3C(=O)NCCc2ccccc2)CC1 [Example 11a] | 23.1 |
| CN1CCC2(CC1)CN(c1cccc3c1ncn3C(=O)NCCOc1ccccc1)C2 [Example 350] | 35 |
| CC(C)CCNC(=O)n1cnc2c(N3CCN(C4CN(C)C4)CC3)cccc21 [Example 204] | 36 |
| CN1CC2CC1CN2c1cccc2c1ncn2C(=O)NCCOc1ccccc1 (stereo not shown) [Example 295] | 33 |
| COc1nc2ccc(-c3cncnc3)cc2n1C(=O)NC1CCCCC1 [Example 111a] | 6 |
| CC(C)C#CCNC(=O)n1cnc2c(N3CCN(C4CN(C)C4)CC3)cccc21 [Example 299] | 30 |
| O=C(NCCc1ccccc1)n1cnc2ccc(N3CCCCC3)cc21 [Example 13b] | 9.1 |
| COc1nc2cc(C3CCN(C)CC3)ccc2n1C(=O)NCCCc1ccccc1 [Example 195a] | 43 |
| CC(C)CCNC(=O)n1cnc2c(N3CCC(F)(F)CC3)cccc21 [Example 143] | 2 |
| O=C(NCCc1ccccc1)n1cnc2cc(N3CCOCC3)ccc21 [Example 14a] | 16.1 |
